assay: Moisture absorption/desorption test; assay type: physicochemical; settings: relative humidity 60%, 25° C.
outcome-measure: Weight change ratio, Adsorption (%)

{"compound": "C=CC(=O)N1CCC[C@@H](n2nc(C(=O)Nc3nc4ccccc4o3)c3c(N)ncnc32)C1.O=C(O)/C=C/C(=O)O [monofumarate of Compound A]", "Weight change ratio, Adsorption [%]": 0.37}
{"compound": "C=CC(=O)N1CCC[C@@H](n2nc(C(=O)Nc3nc4ccccc4o3)c3c(N)ncnc32)C1.C=CC(=O)N1CCC[C@@H](n2nc(C(=O)Nc3nc4ccccc4o3)c3c(N)ncnc32)C1.O=C(O)C(O)C(O)C(=O)O [hemitartrate of Compound A]", "Weight change ratio, Adsorption [%]": 1.67}
{"compound": "C=CC(=O)N1CCC[C@@H](n2nc(C(=O)Nc3nc4ccccc4o3)c3c(N)ncnc32)C1.C=CC(=O)N1CCC[C@@H](n2nc(C(=O)Nc3nc4ccccc4o3)c3c(N)ncnc32)C1.O=C(O)/C=C/C(=O)O [hemifumarate of Compound A]", "Weight change ratio, Adsorption [%]": 0.28}

(a) C=CC(=O)N1CCC[C@@H](n2nc(C(=O)Nc3nc4ccccc4o3)c3c(N)ncnc32)C1.O=P(O)(O)O [monophosphate of Compound A]
(b) C=CC(=O)N1CCC[C@@H](n2nc(C(=O)Nc3nc4ccccc4o3)c3c(N)ncnc32)C1
Compare a and b by numeric Weight change ratio, Adsorption and name the larger one. Pick one and reply with its label. b

* * *

Assay: Moisture absorption/desorption test
Assay type: physicochemical
Conditions: relative humidity 80%, 25° C.
Method: Moisture absorption/desorption test was carried out with respect to Compound A, monofumarate of Compound A, hemifumarate of Compound A, hemitartrate of Compound A and monophosphate of Compound A, to research the presence or absence of the characteristic of channel hydrate. […] A dedicated quartz holder was filled with about from 5 to 10 mg of sample, and a weight of the sample at each humidity was measured and recorded in a continuous manner under the following conditions. […]
outcome-measure: Weight change ratio, Adsorption (%)

Examples from the recorded data:
{"compound": "C=CC(=O)N1CCC[C@@H](n2nc(C(=O)Nc3nc4ccccc4o3)c3c(N)ncnc32)C1.O=P(O)(O)O [monophosphate of Compound A]", "Weight change ratio, Adsorption (%)": 1.29}
{"compound": "C=CC(=O)N1CCC[C@@H](n2nc(C(=O)Nc3nc4ccccc4o3)c3c(N)ncnc32)C1.C=CC(=O)N1CCC[C@@H](n2nc(C(=O)Nc3nc4ccccc4o3)c3c(N)ncnc32)C1.O=C(O)C(O)C(O)C(=O)O [hemitartrate of Compound A]", "Weight change ratio, Adsorption (%)": 1.64}

(a) C=CC(=O)N1CCC[C@@H](n2nc(C(=O)Nc3nc4ccccc4o3)c3c(N)ncnc32)C1.O=C(O)/C=C/C(=O)O [monofumarate of Compound A]
(b) C=CC(=O)N1CCC[C@@H](n2nc(C(=O)Nc3nc4ccccc4o3)c3c(N)ncnc32)C1
Of the pair a and b , name the member with the lesser recorded Weight change ratio, Adsorption. Pick one and reply with its label. a

* * *

assay: in vivo; details: Balb/cA, mouse, po, 50 mg/kg
outcome-measure: Cmax (µM)
Give the value, in units of µM, as a plain number.

Bench note: what Cmax did C=CC(=O)N1CCC[C@@H](n2nc(C(=O)Nc3nc4ccccc4o3)c3c(N)ncnc32)C1 [Compound A] show? 3.98

* * *

assay: Moisture absorption/desorption test; format: physicochemical; conditions: relative humidity 95%, 25° C.
outcome-measure: Weight change ratio, Desorption (%)

Examples from the recorded data:
{"compound": "C=CC(=O)N1CCC[C@@H](n2nc(C(=O)Nc3nc4ccccc4o3)c3c(N)ncnc32)C1.C=CC(=O)N1CCC[C@@H](n2nc(C(=O)Nc3nc4ccccc4o3)c3c(N)ncnc32)C1.O=C(O)C(O)C(O)C(=O)O [hemitartrate of Compound A]", "readout-unit": "%", "numeric-result": 3.31}
{"compound": "C=CC(=O)N1CCC[C@@H](n2nc(C(=O)Nc3nc4ccccc4o3)c3c(N)ncnc32)C1.C=CC(=O)N1CCC[C@@H](n2nc(C(=O)Nc3nc4ccccc4o3)c3c(N)ncnc32)C1.O=C(O)/C=C/C(=O)O [hemifumarate of Compound A]", "readout-unit": "%", "numeric-result": 0.81}
{"compound": "C=CC(=O)N1CCC[C@@H](n2nc(C(=O)Nc3nc4ccccc4o3)c3c(N)ncnc32)C1.O=P(O)(O)O [monophosphate of Compound A]", "readout-unit": "%", "numeric-result": 17.90}

(1) C=CC(=O)N1CCC[C@@H](n2nc(C(=O)Nc3nc4ccccc4o3)c3c(N)ncnc32)C1
(2) C=CC(=O)N1CCC[C@@H](n2nc(C(=O)Nc3nc4ccccc4o3)c3c(N)ncnc32)C1.O=C(O)/C=C/C(=O)O [monofumarate of Compound A]
Of the pair 1 and 2 , name the member with the lesser recorded Weight change ratio, Desorption. Pick one and reply with its label. 2
(2: 0.60%, 1: 4.39%)
